Data provenance: paper PMC9924185

A collection of compounds and their measured Measured concentration
- Run conditions: plasma; Post preparative stability 24 h at autosampler; 2.50 ng/mL (LQC)
Observed property: Measured concentration (ng/mL)

- C=C1CC[C@@H]2[C@](C)(CO)[C@H](O)CC[C@@]2(C)[C@@H]1CCC1=CCOC1=O [AP6, 14-deoxyandrographolide]: 2.52
- C=C1CC[C@@H]2[C@](C)(CO)[C@H](O)CC[C@@]2(C)[C@@H]1C/C=C1/C(=O)OC[C@H]1O [AP1, andrographolide]: 2.35
- C=C1CC[C@@H]2[C@](C)(CO[C@@H]3O[C@H](CO)[C@@H](O)[C@H](O)[C@H]3O)CCC[C@@]2(C)[C@@H]1CCC1=CCOC1=O [AP4, neoandrographolide]: 2.57
- C=C1CC[C@@H]2[C@](C)(CO)[C@H](O)CC[C@@]2(C)[C@@H]1/C=C/C1=CCOC1=O [AP3, 14-deoxy-11, 12-didehydroandrographolide]: 2.44

---

- Run conditions: plasma; Freeze–thaw stability 5 cycles; 500.00 ng/mL (MQC)
A collection of compounds and their measured %Accuracy
Observed property: %Accuracy

- C=C1CC[C@@H]2[C@](C)(CO[C@@H]3O[C@H](CO)[C@@H](O)[C@H](O)[C@H]3O)CCC[C@@]2(C)[C@@H]1CCC1=CCOC1=O [AP4, neoandrographolide]: 94.01%
- C=C1CC[C@@H]2[C@](C)(CO)[C@H](O)CC[C@@]2(C)[C@@H]1CCC1=CCOC1=O [AP6, 14-deoxyandrographolide]: 94.79%
- C=C1CC[C@@H]2[C@](C)(CO)[C@H](O)CC[C@@]2(C)[C@@H]1/C=C/C1=CCOC1=O [AP3, 14-deoxy-11, 12-didehydroandrographolide]: 93.25%
- C=C1CC[C@@H]2[C@](C)(CO)[C@H](O)CC[C@@]2(C)[C@@H]1C/C=C1/C(=O)OC[C@H]1O [AP1, andrographolide]: 93.01%

---

- Run conditions: plasma; Freeze–thaw stability 5 cycles; 2.50 ng/mL (LQC)
Observed property: %Accuracy (%)

- C=C1CC[C@@H]2[C@](C)(CO)[C@H](O)CC[C@@]2(C)[C@@H]1CCC1=CCOC1=O [AP6, 14-deoxyandrographolide]: 96.87
- C=C1CC[C@@H]2[C@](C)(CO)[C@H](O)CC[C@@]2(C)[C@@H]1/C=C/C1=CCOC1=O [AP3, 14-deoxy-11, 12-didehydroandrographolide]: 102.35
- C=C1CC[C@@H]2[C@](C)(CO[C@@H]3O[C@H](CO)[C@@H](O)[C@H](O)[C@H]3O)CCC[C@@]2(C)[C@@H]1CCC1=CCOC1=O [AP4, neoandrographolide]: 99.77
- C=C1CC[C@@H]2[C@](C)(CO)[C@H](O)CC[C@@]2(C)[C@@H]1C/C=C1/C(=O)OC[C@H]1O [AP1, andrographolide]: 97.99

---

A collection of compounds and their measured Measured concentration
- Assay procedure: Stability in urine under different storage conditions
- Assay type: physicochemical, human
- Run conditions: Long term stability 3 months at − 80 °C, 500.00 ng/mL (MQC)
Observed property: Measured concentration (ng/mL)

• C=C1CC[C@@H]2[C@](C)(CO)[C@H](O)CC[C@@]2(C)[C@@H]1C/C=C1/C(=O)OC[C@H]1O [AP1, andrographolide] = 458.89
• C=C1CC[C@@H]2[C@](C)(CO[C@@H]3O[C@H](CO)[C@@H](O)[C@H](O)[C@H]3O)CCC[C@@]2(C)[C@@H]1CCC1=CCOC1=O [AP4, neoandrographolide] = 445.65
• C=C1CC[C@@H]2[C@](C)(CO)[C@H](O)CC[C@@]2(C)[C@@H]1/C=C/C1=CCOC1=O [AP3, 14-deoxy-11, 12-didehydroandrographolide] = 451.82
• C=C1CC[C@@H]2[C@](C)(CO)[C@H](O)CC[C@@]2(C)[C@@H]1CCC1=CCOC1=O [AP6, 14-deoxyandrographolide] = 454.38

---

- Run conditions: plasma; Short term stability 8 h at room temperature; 900.00 ng/mL (HQC)
A collection of compounds and their measured %Accuracy
Observed property: %Accuracy (%)

- C=C1CC[C@@H]2[C@](C)(CO)[C@H](O)CC[C@@]2(C)[C@@H]1CCC1=CCOC1=O [AP6, 14-deoxyandrographolide]: 100.71
- C=C1CC[C@@H]2[C@](C)(CO)[C@H](O)CC[C@@]2(C)[C@@H]1C/C=C1/C(=O)OC[C@H]1O [AP1, andrographolide]: 98.76
- C=C1CC[C@@H]2[C@](C)(CO[C@@H]3O[C@H](CO)[C@@H](O)[C@H](O)[C@H]3O)CCC[C@@]2(C)[C@@H]1CCC1=CCOC1=O [AP4, neoandrographolide]: 98.96
